src = patent US10898469B2

Task for the reader: assign each of the following molecules its reported pIC50.
- Tested on: HT-29 cells
- MEASUREMENT_DESCRIPTION: Inhibition test for sphere-forming ability of cancer cells (Test Example 1), HT-29
- Type: cell-based, human
- TEST_SETTINGS: concentration for 50% inhibition of cell proliferation, read-out: IC50 (μmol/L) HT-29 (Sphere IC50 value)
Units for pIC50: none; it is -log10 of a concentration expressed in mol/L.

Entry COc1ccc(NC(=O)c2cn(Cc3cc(F)c(F)c(F)c3)cn2)cn1 [Example 254] has what pIC50?
5.19

Moving on to O=C(/C=C/c1ccc2ccccc2c1)Nc1cn(Cc2cccc(Cl)c2)cn1 [Example 95]
5.49

Moving on to O=C(/C=C/c1ccc(N2CCOCC2)cc1)Nc1cn(Cc2cccc(Cl)c2)cn1 [Example 96]
7.05

Moving on to O=C(/C=C/c1ccc(Cl)c(Cl)c1)Nc1cn(Cc2cccc(Cl)c2)cn1 [Example 59]
6.10

Moving on to CCOc1ncc(C(=O)Nc2cn(Cc3cccc(Cl)c3)cn2)cc1Cl [Example 220]
5.37

Moving on to O=C(/C=C/c1ccco1)Nc1cn(Cc2cccc(Cl)c2)cn1 [Example 87]
5.26

Moving on to O=C(Nc1cn(Cc2cccc(C(F)(F)F)c2)cn1)c1cnc2ccccc2c1 [Example 181]
6.72

Moving on to O=C(Nc1cn(Cc2cccc(OC(F)(F)F)c2)cn1)c1ccc(OCC(F)(F)F)nc1 [Example 222]
5.32

Moving on to O=C(Nc1cn(Cc2cccc(Cl)c2)cn1)c1ccc(OCC(F)(F)F)nc1 [Example 219]
5.08

Moving on to COc1ccc(C(=O)Nc2cn(Cc3cccc(F)c3)cn2)cc1OC [Example 145]
6.21

Moving on to O=C(Nc1cn(Cc2cccc(C(F)(F)F)c2)cn1)c1ccc2cnccc2c1 [Example 186]
7.30

Moving on to O=C(Nc1cccnc1)c1cn(Cc2cccc(Cl)c2)cn1 [Example 264]
5.22

Moving on to COc1ccc(/C=C/C(=O)Nc2cn(Cc3cccc(Cl)c3)cn2)cc1Cl [Example 80]
5.15

Moving on to COc1ccc(C(=O)Nc2cn(Cc3ccc(F)cc3C(F)(F)F)cn2)cc1OC [Example 163]
5.82

Moving on to CCOc1ccc(C(=O)Nc2cn(Cc3c(F)ccc(C)c3F)cn2)cn1 [Example 221]
6.23

Moving on to COc1ccc(C(=O)Nc2cn(Cc3c(F)ccc(F)c3F)cn2)cc1OC [Example 155]
5.18

Moving on to O=C(/C=C/c1c[nH]cn1)Nc1cn(Cc2cccc(Cl)c2)cn1 [Example 90]
5.10

Moving on to Cc1csc(NC(=O)c2cn(Cc3cccc(Cl)c3)cn2)n1 [Example 257]
6.10

Moving on to O=C(Nc1cn(Cc2cccc(Cl)c2)cn1)c1ccc(-n2cccn2)nc1 [Example 196]
5.42

Moving on to O=C(Nc1cn(Cc2cccc(C(F)(F)F)c2)cn1)c1cc2cnccc2s1 [Example 194]
5.55

Moving on to O=C(/C=C/c1ccncc1)Nc1cn(Cc2cccc(Cl)c2)cn1 [Example 97]
7.30

Moving on to COc1ccc(/C=C/C(=O)Nc2cn(Cc3cccc(Cl)c3)cn2)c(OC)c1 [Example 71]
7.52

Moving on to COc1ccc(/C=C/C(=O)Nc2cn(Cc3cccc(Cl)c3)cn2)cc1OC [Example 66]
7.15

Moving on to COc1cccc(OC)c1/C=C/C(=O)Nc1cn(Cc2cccc(Cl)c2)cn1 [Example 76]
5.57

Moving on to O=C(Nc1cn(Cc2cccc(Cl)c2)cn1)c1ccc2ncccc2c1 [Example 137]
6.24

Moving on to O=C(/C=C/c1ccc(-c2ccccc2)cc1)Nc1cn(Cc2cccc(Cl)c2)cn1 [Example 70]
7.10

Moving on to COc1ccc(OC)c(/C=C/C(=O)Nc2cn(Cc3cccc(Cl)c3)cn2)c1 [Example 53]
6.08

Moving on to Cc1ccncc1/C=C/C(=O)Nc1cn(Cc2cccc(Cl)c2)cn1 [Example 91]
5.35

====

- System: HCT-116 cells
- MEASUREMENT_DESCRIPTION: Inhibition test for sphere-forming ability of cancer cells in the presence of BSA (Test Example 2), HCT-116
- Type: cell-based, human
- TEST_SETTINGS: HCT-116 cells, in the presence of 5% BSA, cultured 4 days
// classify: if (IC50 < 600 nM) true (1) else false (0)

Confirm or reject: IC50 of O=C(Nc1cn(Cc2cccc(C(F)(F)F)c2)cn1)c1cnc2ncccc2c1 lies strictly below 600 nM
false (0)

Moving on to O=C(Nc1cn(Cc2cccc(C(F)(F)F)c2)cn1)c1ccc2cnccc2c1
true (1)

Moving on to COc1ccc(C(=O)Nc2cn(Cc3ccc(F)cc3F)cn2)cc1OC
false (0)

Moving on to O=C(Nc1cn(Cc2cccc(Cl)c2)cn1)c1cnc2ccccc2c1
false (0)

Moving on to O=C(Nc1cn(Cc2cccc(C(F)(F)F)c2)cn1)c1ccncn1
false (0)

Moving on to O=C(Nc1ccc(CO)cc1)c1cn(Cc2cc(F)c(F)c(F)c2)cn1
true (1)

Moving on to COc1ccc(C(=O)Nc2cn(Cc3ccc(F)cc3C(F)(F)F)cn2)cc1OC
false (0)

Moving on to COc1ccc(C(=O)Nc2cn(Cc3cccc(F)c3F)cn2)cc1OC
false (0)

Moving on to CNc1ccc(/C=C/C(=O)Nc2cn(Cc3cccc(Cl)c3)cn2)cn1
false (0)

Moving on to COc1ccc(C(=O)Nc2cn(Cc3c(F)cccc3F)cn2)cc1OC
false (0)

Moving on to COc1ccc(C(=O)Nc2cn(Cc3cc(F)ccc3F)cn2)cc1OC
false (0)

Moving on to Cc1ccc2cc(NC(=O)c3cn(Cc4cc(F)c(F)c(F)c4)cn3)ccc2n1
true (1)

Moving on to COc1ccc(C(=O)Nc2cn(Cc3ccc(F)c(C(F)(F)F)c3)cn2)cc1OC
true (1)

Moving on to Cc1cccc(NC(=O)c2cn(Cc3cccc(Cl)c3)cn2)n1
false (0)

Moving on to O=C(Nc1cn(Cc2cc(F)c(F)c(F)c2)cn1)c1ccc2cnccc2c1
true (1)

Moving on to COc1ccc(C(=O)Nc2cn(Cc3cccc(F)c3)cn2)cc1OC
false (0)

Moving on to O=C(Nc1cn(Cc2cccc(Cl)c2)cn1)c1cnc2[nH]ccc2c1
false (0)

====

- System: HCT-116 cells
- MEASUREMENT_DESCRIPTION: Inhibition test for sphere-forming ability of cancer cells in the presence of BSA (Test Example 2), HCT-116
- Format: cell-based, human
- TEST_SETTINGS: Homo sapiens, HCT-116, 96 h, HCT-116 cells, in the presence of 5% BSA, cultured 4 days
Task for the reader: assign each of the following compounds its reported pIC50.
Units for pIC50: none; it is -log10 of a concentration expressed in mol/L.

Entry O=C(/C=C/c1ccc(NC(=O)CO)cc1)Nc1cn(Cc2cccc(Cl)c2)cn1 has what pIC50?
6.10

Moving on to CC(=O)Nc1ccc(C(=O)Nc2cn(Cc3cccc(Cl)c3)cn2)cn1
5.01

Moving on to COc1ccc(/C=C/C(=O)Nc2cn(Cc3cc(F)c(F)c(F)c3)cn2)cc1OCCO
7.22

====

- MEASUREMENT_DESCRIPTION: Pharmacokinetic assay in tumor-bearing mice where HCT-116 cells were transplanted (Test Example 3)
- Assay type: in vivo
- TEST_SETTINGS: female, BALB/cAnNCrlj-nu/nu, plasma; tumor-bearing nude mouse, oral single dose 100 mg/kg, 20% Labrasol, 2 hours; read-out: Plasma concentrations after oral administration, 2 hours
QUANTITY_NAME: concentration at 2 h (ng/mL)
The figure you give is taken to be in ng/mL; do not add the unit.

Entry N#Cc1ccc(/C=C/C(=O)Nc2cn(Cc3cccc(Cl)c3)cn2)cc1OCCO [Example 129] has what concentration at 2 h?
309

Moving on to CC(=O)Nc1ccc(/C=C/C(=O)Nc2cn(Cc3cccc(C(F)(F)F)c3)cn2)cc1.Cl [Example 122]
642

Moving on to CC(=O)Nc1ccc(/C=C/C(=O)Nc2cn(Cc3cccc(OC(F)(F)F)c3)cn2)cc1 [Example 123]
837

Moving on to COc1ccc(/C=C/C(=O)Nc2cn(Cc3cccc(C(F)(F)F)c3)cn2)cc1OCCO [Example 128]
610

====

- Test system: HCT-116 cells
- MEASUREMENT_DESCRIPTION: Inhibition test for sphere-forming ability of cancer cells in the presence of BSA (Test Example 2), HCT-116
- Assay type: cell-based, human
- TEST_SETTINGS: Homo sapiens, HCT-116, 96 h, HCT-116 cells, in the presence of 5% BSA, cultured 4 days
// classify: if (IC50 < 6000 nM) 1 else -1

Confirm or reject: IC50 of O=C(Nc1cn(Cc2cccc(C(F)(F)F)c2)cn1)c1ccc(NCCO)nc1 lies strictly below 6000 nM
-1

Moving on to CCCC(=O)Nc1ccc(/C=C/C(=O)Nc2cn(Cc3cccc(Cl)c3)cn2)cc1
1

Moving on to O=C(/C=C/c1ccc(F)c(OCCO)c1)Nc1cn(Cc2cccc(Cl)c2)cn1
-1

Moving on to N#Cc1ccc(/C=C/C(=O)Nc2cn(Cc3cccc(Cl)c3)cn2)cc1OCCO
1

Moving on to Cl.O=C(/C=C/c1ccc(F)c(O)c1)Nc1cn(Cc2cccc(Cl)c2)cn1
1

Moving on to O=C(/C=C/c1cccnc1)Nc1cn(Cc2cccc(Cl)c2)cn1
1

Moving on to CC(=O)Nc1ccc(/C=C/C(=O)Nc2cn(Cc3cccc(OC(F)(F)F)c3)cn2)cc1
1

Moving on to CC(=O)Nc1ccc(/C=C/C(=O)Nc2cn(Cc3cccc(C(F)(F)F)c3)cn2)cc1
1
